meta.source: PubChem BioAssay AID1566

# assay_notes: inhibition of NOD2-driven NF-kB reporter – cell-based, luminescence, uHTS, HEK293 (AID 1566)
# test_parameters: HEK293 NOD2/NF-kB luciferase reporter, at 4 µM, hits give high values
The campaign covered roughly 290,000 compounds. About 1,800 (0.62%) were called active. Only a selection was taken, and actives are over-represented in it overall.
readout: inhibition (%)

compound	test_value
C=CCc1cccc2cc(C(=O)Nc3cccc(C(=O)O)c3)c(=O)oc12	-0.7
Cc1ccc(NC(=O)N2CCCC2C(=O)Nc2ccc3c(c2)OCCO3)cc1 (stereo unspecified)	-15.1
COc1ccc(OCC(=O)N/N=C/c2ccc(N(C)C)cc2)cc1	-12.2
CN1CCN(C(=O)/C=C/c2c(F)cccc2Cl)CC1	9.9
Cc1ccc(C)c(N2CCN(CC(=O)Nc3ccc([N+](=O)[O-])cc3C(=O)Nc3ccccc3F)CC2)c1	-26.6
O=C(NCc1ccccc1Cl)C1CCCN(c2ncnc3c2nc2n3CCCCC2)C1 (stereo unspecified)	18.9

* * *

# assay_notes: inhibition of NOD2-driven NF-kB reporter – cell-based, luminescence, uHTS, HEK293 (AID 1566)
# test_parameters: HEK293 NOD2/NF-kB luciferase reporter, at 4 µM, hits give high values
About 1,800 (0.62%) of roughly 290,000 compounds were called active. Only a selection was taken, and actives are over-represented in it overall.
readout: inhibition

molecule	test_value
COc1ccc(CC(=O)Nc2ccc3c(c2)CCC3)cc1	13.2% (inactive)
O=C(COc1ccccc1)Nc1ccccc1NS(=O)(=O)c1cccs1	11.6% (inactive)
CC(Oc1ccccc1)C(=O)NC1=NCCS1 (stereo unspecified)	-34.9% (inactive)
Cc1ccc(C(=O)Nc2cccc(C(F)(F)F)c2)cc1Nc1ccccn1	-0.8% (inactive)
COc1ccc(NC(=O)c2cc([N+](=O)[O-])ccc2N2CCCC2)cc1	7.4% (inactive)
Cc1nc2cc(N3CCCCC3)c(NC(=O)c3ccncc3)cc2c(=O)n1Cc1ccccc1	10.5% (inactive)
COC(=O)C(C)Oc1ccc(-c2nccc(-c3cccs3)n2)cc1 (stereo unspecified)	-13.1% (inactive)
CCOC(=O)Cc1nnc2c(Nc3ccc(Cl)cc3)nc3nonc3n12	14.5% (inactive)
CCOC(=O)C1=C2c3ccc4ccccc4c3CC(C)(C)N2C(=O)C1=O	17.7% (inactive)
C#CC(=O)N(c1ccc(OC)c(OC)c1)C(C(=O)NC1CCCC1)c1cccs1 (stereo unspecified)	-0.2% (inactive)
CCc1oc2ccccc2c1C(=O)CCN1CCCCC1	3.9% (inactive)
COc1ccc(OC)c(S(=O)(=O)N(C)CC(=O)Nc2ccc3c(c2)OCO3)c1	4.6% (inactive)
CCOC(=O)Cc1nnc2c(Nc3ccc(C)cc3)nc3nonc3n12	-2.9% (inactive)
COc1ccccc1C(C)NCC(=O)Nc1c(F)cccc1F (stereo unspecified)	5.5% (inactive)
COc1ccc(-c2noc(-c3ccoc3C)n2)cc1	-47.8% (inactive)
CCOC(=O)c1[nH]c2ccc(OCC)cc2c1NC(=O)CN1CCC2(CC1)OCCO2	-2.2% (inactive)
Cc1cc(C)n2nc(SCC(=O)c3ccccc3)nc2n1	-15.3% (inactive)
NS(=O)(=O)c1ccc(NC(=O)COC(=O)CCc2ccc(S(=O)(=O)N3CCOCC3)cc2)cc1	-3% (inactive)
COc1ccc(NC(=O)c2c(NC(=O)CNCc3ccco3)sc3c2CCC3)cc1	6.3% (inactive)
COc1cccc(N(CC(=O)NC2CCCC2)C(=O)CCC(=O)Nc2cc(C)on2)c1	2.5% (inactive)
Cc1cc(NC(=O)CSc2ccc3c(c2)OCCO3)no1	14.9% (inactive)
COc1ccc(CN(Cc2nc3ccccc3c(=O)[nH]2)C(=O)c2ccco2)cc1	6.4% (inactive)
CCSC1=C(C#N)C2(CCCCC2)C(C#N)C(=O)N1 (stereo unspecified)	10.3% (inactive)
COc1ccc(CC(=O)Nc2ccc3c(c2)CCC3)cc1OC	53.3% (active)
O=C(COc1ccc(Cl)cc1Cl)Nc1ccccc1NS(=O)(=O)c1cccs1	25.1% (inactive)
CC1(C)Cc2ccccc2C2=C(C(=O)N3CCCCCC3)C(=O)C(=O)N21	16.7% (inactive)
CC(=O)Nc1cc2c(=O)n(Cc3ccccc3)c(C)nc2cc1N1CCOCC1	9.5% (inactive)
N#CC1=C(SCC(=O)NC2CC2)NC(=O)C(C#N)C12CCCCC2 (stereo unspecified)	-1.6% (inactive)
CC1(C)Cc2c(ccc3ccccc23)C2=C(C(=O)N3CCCC3)C(=O)C(=O)N21	52.7% (active)
Oc1ccc(-c2nccc(-c3cccs3)n2)cc1	-139% (inactive)
COc1ccc(N(CC(=O)N/N=C/c2ccc(N(C)C)cc2)S(=O)(=O)c2ccccc2)cc1	-57% (inactive)
